Below is a list of entries, each paired with its recorded Tmax value.
experiment: Tmax in BALB/c mouse at 50 mg/kg, po measured at 15 to 1440 mins by LC-MS/MS analysis; format: ADME, organism-based; conditions: in vivo, time 15-1440 min
Please reply with the bare figure in min and do not write the unit itself.

• O=C1CCCN1c1ccc(Sc2ccccc2CO)c(C(F)(F)F)c1 = 30

Input line: Dear colleague, I am looking for the recorded Tmax of the following compound: `O=C1CCCN1c1ccc(S(=O)(=O)c2ccccc2CO)c(C(F)(F)F)c1`
Output line: 30

====

assay: Cytotoxicity against mouse NIH3T3 cells assessed as reduction in cell viability; assay type: toxicity, cell-based
READOUT TYPE: IC50

Input line: Dear colleague, I am looking for the recorded IC50 of the following compound: `N#Cc1cc(N2CCCC2=O)ccc1Sc1ccccc1CO`
Output line: > 50.1 µM
